Reported MIC Enterococccus faecalis (ATCC 29212) values are given for each entry in this list.
# Test system: Enterococcus sp.
# assay.protocol: In vitro antibacterial evaluation: minimum inhibitory concentration (MIC), broth dilution method
# Type: cell-based
# test.parameters: broth dilution, 5×10^5 CFU/mL, 18 hours at 35° C.
The answer is to be given in µg/mL; state only the numeric part.

Illustrative cases are given below, each with its answer.
compound: CC(C)=CCCC(C)C1OCC2OC(OC3C(CO)OC(Oc4ccc(CC5NC(=O)C(C(C)c6ccccc6)NC(=O)CNC(=O)C(CO)NC(=O)C(C(O)C6CNC(=N)N6C6OC(CO)C(O)C(O)C6O)NC(=O)C(C(O)C6CNC(=N)N6)NC5=O)cc4)C(O)C3O)C(O)C(O)C2O1 (stereo not drawn) [Example 125]
numeric.value: 32
--
compound: CC(C)=CCCC(C)CC1OCC2OC(OC3C(CO)OC(Oc4ccc(CC5NC(=O)C(C(C)c6ccccc6)NC(=O)CNC(=O)C(CO)NC(=O)C(C(O)C6CNC(=N)N6C6OC(CO)C(O)C(O)C6O)NC(=O)C(C(O)C6CNC(=N)N6)NC5=O)cc4)C(O)C3O)C(O)C(O)C2O1 (stereo not drawn) [Example 126]
numeric.value: 8
--
compound: CC(c1ccccc1)C1NC(=O)CNC(=O)C(CO)NC(=O)C(C(O)C2CNC(=N)N2C2OC(CO)C(O)C(O)C2O)NC(=O)C(C(O)C2CNC(=N)N2)NC(=O)C(Cc2ccc(OC3OC(CO)C(OC4OC5COC(CCc6ccccc6)OC5C(O)C4O)C(O)C3O)cc2)NC1=O (stereo not drawn) [Example 124]
numeric.value: 4

Query: Quick one: MIC Enterococccus faecalis (ATCC 29212) for CC(C)=CCCC1OCC2OC(OC3C(CO)OC(Oc4ccc(CC5NC(=O)C(C(C)c6ccccc6)NC(=O)CNC(=O)C(CO)NC(=O)C(C(O)C6CNC(=N)N6C6OC(CO)C(O)C(O)C6O)NC(=O)C(C(O)C6CNC(=N)N6)NC5=O)cc4)C(O)C3O)C(O)C(O)C2O1 (stereo not drawn) [Example 123] ?
Response: 8

Query: Quick one: MIC Enterococccus faecalis (ATCC 29212) for CC(c1ccccc1)C1NC(=O)CNC(=O)C(CO)NC(=O)C(C(O)C2CNC(=N)N2C2OC(CO)C(O)C(O)C2O)NC(=O)C(C(O)C2CNC(=N)N2)NC(=O)C(Cc2ccc(OC3OC(CO)C(OC4OC5COC(CC67CC8CC(CC(C8)C6)C7)OC5C(O)C4O)C(O)C3O)cc2)NC1=O (stereo not drawn) [Example 129] ?
Response: 2

Query: Quick one: MIC Enterococccus faecalis (ATCC 29212) for CC(c1ccccc1)C1NC(=O)CNC(=O)C(CO)NC(=O)C(C(O)C2CNC(=N)N2C2OC(CO)C(O)C(O)C2O)NC(=O)C(C(O)C2CNC(=N)N2)NC(=O)C(Cc2ccc(OC3OC(CO)C(OC4OC5COC(CC6CCCCC6)OC5C(O)C4O)C(O)C3O)cc2)NC1=O (stereo not drawn) [Example 122] ?
Response: 2

---

# System: Streptococcus sp.
# assay.protocol: In vitro antibacterial evaluation: minimum inhibitory concentration (MIC), broth dilution method
# Assay type: cell-based
# test.parameters: strain GC 4563
observable: MIC Streptococcus pyogenes (GC 4563)

compound: CC(c1ccccc1)C1NC(=O)CNC(=O)C(CO)NC(=O)C(C(O)C2CNC(=N)N2C2OC(CO)C(O)C(O)C2O)NC(=O)C(C(O)C2CNC(=N)N2)NC(=O)C(Cc2ccc(OC3OC(CO)C(OC4OC5COC(c6ccc(-c7cccs7)cc6)OC5C(O)C4O)C(O)C3O)cc2)NC1=O (stereo not shown) [Example 163]
tgt: Streptococcus sp.
MIC Streptococcus pyogenes (GC 4563): <0.5 µg/mL
--
compound: CCCc1ccc(C2OCC3OC(OC4C(CO)OC(Oc5ccc(CC6NC(=O)C(C(C)c7ccccc7)NC(=O)CNC(=O)C(CO)NC(=O)C(C(O)C7CNC(=N)N7C7OC(CO)C(O)C(O)C7O)NC(=O)C(C(O)C7CNC(=N)N7)NC6=O)cc5)C(O)C4O)C(O)C(O)C3O2)cc1 (stereo not shown) [Example 140]
tgt: Streptococcus sp.
MIC Streptococcus pyogenes (GC 4563): <0.5 µg/mL
--
compound: CC(c1ccccc1)C1NC(=O)CNC(=O)C(CO)NC(=O)C(C(O)C2CNC(=N)N2C2OC(CO)C(O)C(O)C2O)NC(=O)C(C(O)C2CNC(=N)N2)NC(=O)C(Cc2ccc(OC3OC(CO)C(OC4OC5COC(c6ccc(C(C)(C)C)cc6)OC5C(O)C4O)C(O)C3O)cc2)NC1=O (stereo not shown) [Example 147]
tgt: Streptococcus sp.
MIC Streptococcus pyogenes (GC 4563): >0.12 µg/mL

Consider the record given below.
Query: Quick one: MIC Streptococcus pyogenes (GC 4563) for COc1ccc(Oc2cccc(C3OCC4OC(OC5C(CO)OC(Oc6ccc(CC7NC(=O)C(C(C)c8ccccc8)NC(=O)CNC(=O)C(CO)NC(=O)C(C(O)C8CNC(=N)N8C8OC(CO)C(O)C(O)C8O)NC(=O)C(C(O)C8CNC(=N)N8)NC7=O)cc6)C(O)C5O)C(O)C(O)C4O3)c2)cc1 (stereo not shown) [Example 180] ?
Response: <0.06 µg/mL
